Consider the following compounds; for each one, report its diameter of the inhibition zone (DIZ).
tested on: Aspergillus fumigatus; assay: Antifungal activity against Aspergillus fumigatus assessed as growth inhibition after 3 to 4 days by disk diffusion assay; type: functional
Give bare numbers, in mm.

Inquiry: Give me measured diameter of the inhibition zone (DIZ), please, for this compound: `Cc1[nH]n(-c2ccccc2)c(=O)c1C(c1coc2ccccc2c1=O)c1c(C)[nH]n(-c2ccccc2)c1=O`
Reply text: 20.7

Inquiry: Return diameter of the inhibition zone (DIZ) (reported value) for this compound: `Cc1cc2oc(=O)c(C(c3c(O)c4cc(C)c(C)cc4oc3=O)c3coc4ccccc4c3=O)c(O)c2cc1C`
Reply text: 22.1

Inquiry: Provide only the value of recorded diameter of the inhibition zone (DIZ) for `O=c1oc2ccccc2c(O)c1C(c1c(O)c2ccccc2oc1=O)c1coc2ccccc2c1=O`
Reply text: 16.7

Consider the additional compound presented here.
Inquiry: Assign diameter of the inhibition zone (DIZ) to the following record: `Cc1cc(O)c(C(c2c(O)cc(C)oc2=O)c2coc3ccccc3c2=O)c(=O)o1`
Reply text: 21.3
